# tgt: T1, recombinant human B7-H4-huIgG1 (human)
# T1 construct: also called B7-H4-extracellular domain (ECD)
# measurementNotes: BLI, antigen on Protein A tips;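 further: Anti-B7-H4 antibodies assessed for affinity toward the B7-H4 extracellular domain using biolayer interferometry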
readoutKind: koff (s⁻¹)
Give a bare numeral; the unit s⁻¹ is implied.

Some binders with recorded koff:
{"binder": "B7-H4 antibody 20506 (antibody, V domains shown, human IgG1/kappa) VH: QLQLQESGPGLVKPSETLSLTCTASGGSISHGGYYWSWIRQHPGKGLEWIGNIYYSGSTYYNPSLKSRVTMSVDTSKNQFSLKLSSVTAADTAVYYCARESSTISADFDLWGRGTLVTVSS VL: DIQMTQSPSSVSASVGDRVTITCRASQGISRWLAWYQQKPGKAPKLLIYAASSLQSGVPSRFSGSGSGTDFTLTISSLQPEDFATYYCQQAHTFPYTFGGGTKVEIKR", "koff, s⁻¹": 0.000746}
{"binder": "B7-H4 antibody 20516 (antibody, human IgG1, kappa, V domains shown, human IgG1/kappa) VH: QVQLQESGPGLVKPSETLSLTCTVSGGSIISYYWGWIRQPPGKGLEWIGYIYSSGSTSYNPSLKSRVTISVDTSKNQFSLKLSSVTAADTAVYYCARGSGLYAAPDYGLDVWGQGTTVTVSS VL: DIQMTQSPSTLSASVGDRVTITCRASQSISSWLAWYQQKPGKAPKLLIYKASSLESGVPSRFSGSGSGTEFTLTISSLQPDDFATYYCQQDNSFPFTFGGGTKVEIKR", "koff, s⁻¹": 0.00738}

Inquiry: For the binder B7-H4 antibody 22208 (antibody, human IgG1, kappa, V domains shown, human IgG1/kappa) VH: QLQLQESGPGLVKPSETLSLTCTVSGGSIKSGSHYWGWIRQPPGKGLEWIGNIYYSGSTYYNPSLKSRVTMSVDTSKNQFSLKLSSVTAADTAVYYCAREGSYPNWFDPWGQGTLVTVSS VL: EIVMTQSPATLSVSPGERATLSCRASQSVSTNLAWYQQKPGQAPRLLIYDASARVTGIPARFSGSGSGTEFTLTISSLQSEDFAVYYCQQYHSFPFTFGGGTKVEIKR , what koff is on record?
Reply text: 0.00104
